tested on: Human immunodeficiency virus 1; test: Inhibition of HIV-1 replication in human T-cell by using XTT assay.; assay type: functional
Listing: TI50 of selected compounds

COMPOUND: O=C(O)Cc1ccc(SSc2ccc(CC(=O)O)cc2)cc1
TEST_TARGET: Human immunodeficiency virus 1
VALUE_PREFIX: >
TI50: 8.7
//
COMPOUND: NS(=O)(=O)c1ccc(SSc2ccc(S(N)(=O)=O)cc2[N+](=O)[O-])c([N+](=O)[O-])c1
TEST_TARGET: Human immunodeficiency virus 1
VALUE_PREFIX: >
TI50: 5.8
//
COMPOUND: Cc1cc(C)c(C(=O)O)c(SSc2cc(C)cc(C)c2C(=O)O)c1
TEST_TARGET: Human immunodeficiency virus 1
VALUE_PREFIX: =
TI50: 2.7
//
COMPOUND: Nc1ccc(S(N)(=O)=O)cc1SSc1cc(S(N)(=O)=O)ccc1N
TEST_TARGET: Human immunodeficiency virus 1
VALUE_PREFIX: >
TI50: 14.2
//
COMPOUND: NC(=O)CSSCC(N)=O
TEST_TARGET: Human immunodeficiency virus 1
VALUE_PREFIX: =
TI50: 6.5
//
COMPOUND: Nc1cc(S(N)(=O)=O)ccc1SSc1ccc(S(N)(=O)=O)cc1N
TEST_TARGET: Human immunodeficiency virus 1
VALUE_PREFIX: =
TI50: 14.9
//
COMPOUND: COS(=O)CCOC(=O)c1ccccc1SSc1ccccc1C(=O)OCCS(=O)OC (stereo unspecified)
TEST_TARGET: Human immunodeficiency virus 1
VALUE_PREFIX: >
TI50: 2.1
//
COMPOUND: CC(=O)NC1CN=C(SSC2=NCC(NC(C)=O)S2)S1 (stereo unspecified)
TEST_TARGET: Human immunodeficiency virus 1
VALUE_PREFIX: >
TI50: 5.3
//
COMPOUND: CC1(C)CC2=NC(SSC3=C(C#N)C(c4ccc(F)cc4)C4=C(O)CC(C)(C)CC4=N3)=C(C#N)C(c3ccc(F)cc3)C2=C(O)C1 (stereo unspecified)
TEST_TARGET: Human immunodeficiency virus 1
VALUE_PREFIX: =
TI50: 3.2
//
COMPOUND: NNC(=O)c1ccccc1SSc1ccccc1C(=O)NN
TEST_TARGET: Human immunodeficiency virus 1
VALUE_PREFIX: =
TI50: 5
//
COMPOUND: O=C(O)c1ccc(SSc2ccc(C(=O)O)cc2)cc1
TEST_TARGET: Human immunodeficiency virus 1
VALUE_PREFIX: >
TI50: 1.6

---

Listing of recorded pEC50 by entry.
test system: Human immunodeficiency virus 1; assay: Effective concentration required for 50% production of p24 production.; assay type: functional, organism-based
pEC50: −log10 of the molar value.

COMPOUND: COc1cc(SSc2cc(OC)cc([N+](=O)[O-])c2N)c(N)c([N+](=O)[O-])c1
TEST_TARGET: Human immunodeficiency virus 1
VALUE_PREFIX: =
pEC50: 5.12

COMPOUND: O=C(O)Cc1ccc(SSc2ccc(CC(=O)O)cc2)cc1
TEST_TARGET: Human immunodeficiency virus 1
VALUE_PREFIX: <
pEC50: 4.00

COMPOUND: CC1(C)CC2=NC(SSC3=C(C#N)C(c4ccc(F)cc4)C4=C(O)CC(C)(C)CC4=N3)=C(C#N)C(c3ccc(F)cc3)C2=C(O)C1 (stereo not given)
TEST_TARGET: Human immunodeficiency virus 1
VALUE_PREFIX: <
pEC50: 4.00

COMPOUND: NNC(=O)c1ccccc1SSc1ccccc1C(=O)NN
TEST_TARGET: Human immunodeficiency virus 1
VALUE_PREFIX: =
pEC50: 4.68

COMPOUND: O=S(=O)(SC1=NCCN1)c1ccccc1
TEST_TARGET: Human immunodeficiency virus 1
VALUE_PREFIX: =
pEC50: 4.43

COMPOUND: N=C(N)Nc1ccccc1SSc1ccccc1N=C(N)N
TEST_TARGET: Human immunodeficiency virus 1
VALUE_PREFIX: =
pEC50: 5.00

COMPOUND: Nc1ccc(S(N)(=O)=O)cc1SSc1cc(S(N)(=O)=O)ccc1N
TEST_TARGET: Human immunodeficiency virus 1
VALUE_PREFIX: <
pEC50: 4.00

COMPOUND: Cc1cc(S(=O)(=O)C2=NC(Nc3ccccc3)NN2)c(SSc2cc(Cl)c(C)cc2S(=O)(=O)C2=NC(Nc3ccccc3)NN2)cc1Cl (stereo not given)
TEST_TARGET: Human immunodeficiency virus 1
VALUE_PREFIX: =
pEC50: 4.10

COMPOUND: Nc1cc(C(=O)O)ccc1SSc1ccc(C(=O)O)cc1N
TEST_TARGET: Human immunodeficiency virus 1
VALUE_PREFIX: <
pEC50: 4.00

COMPOUND: CC1(C)CC2=NC(SSC3=C(C#N)C(c4ccc(Br)cc4)C4=C(O)CC(C)(C)CC4=N3)=C(C#N)C(c3ccc(Br)cc3)C2=C(O)C1 (stereo not given)
TEST_TARGET: Human immunodeficiency virus 1
VALUE_PREFIX: <
pEC50: 4.00

COMPOUND: CC(=O)NC1CN=C(SSC2=NCC(NC(C)=O)S2)S1 (stereo not given)
TEST_TARGET: Human immunodeficiency virus 1
VALUE_PREFIX: <
pEC50: 4.00

COMPOUND: Nc1cc(S(N)(=O)=O)ccc1SSc1ccc(S(N)(=O)=O)cc1N
TEST_TARGET: Human immunodeficiency virus 1
VALUE_PREFIX: <
pEC50: 4.00

COMPOUND: O=C(O)c1ccc(SSc2ccc(C(=O)O)cc2)cc1
TEST_TARGET: Human immunodeficiency virus 1
VALUE_PREFIX: <
pEC50: 4.00

COMPOUND: O=C(O)c1cccc(SS(=O)(=O)c2cccc(C(=O)O)c2)c1
TEST_TARGET: Human immunodeficiency virus 1
VALUE_PREFIX: =
pEC50: 4.15

COMPOUND: O=C(O)c1ccccc1SSc1ccccc1C(=O)O
TEST_TARGET: Human immunodeficiency virus 1
VALUE_PREFIX: =
pEC50: 4.24

COMPOUND: COC(=S)SSC(=S)N(CC/N=C(/S)SSC(=S)OC)CC/N=C(\S)SSC(=S)OC
TEST_TARGET: Human immunodeficiency virus 1
VALUE_PREFIX: <
pEC50: 4.00

COMPOUND: O=C(N/N=C\c1ccc(Cl)cc1Cl)c1ccccc1SSc1ccccc1C(=O)N/N=C\c1ccc(Cl)cc1Cl
TEST_TARGET: Human immunodeficiency virus 1
VALUE_PREFIX: =
pEC50: 5.46

COMPOUND: Cc1cc(C(=O)O)c(C)cc1SSc1cc(C)c(C(=O)O)cc1C
TEST_TARGET: Human immunodeficiency virus 1
VALUE_PREFIX: =
pEC50: 4.49

COMPOUND: NC(=O)CSSCC(N)=O
TEST_TARGET: Human immunodeficiency virus 1
VALUE_PREFIX: <
pEC50: 4.00

COMPOUND: CC(=O)NCCSS(=O)(=O)CCCCS(=O)(=O)SCCNC(C)=O
TEST_TARGET: Human immunodeficiency virus 1
VALUE_PREFIX: <
pEC50: 4.00

---

Recorded IC50 values for a group of molecules are listed next.
test system: Human immunodeficiency virus 1; test: Tested for cytoprotection against production of HIV-1 p24.; format: functional, organism-based

MOLECULE: Cc1cc(S(=O)(=O)C2=NC(Nc3ccccc3)NN2)c(SSc2cc(Cl)c(C)cc2S(=O)(=O)C2=NC(Nc3ccccc3)NN2)cc1Cl (stereo not given)
IC50: > 100 µM
//
MOLECULE: O=S(=O)(SC1=NCCN1)c1ccccc1
IC50: > 100 µM
//
MOLECULE: Nc1ccc(S(N)(=O)=O)cc1SSc1cc(S(N)(=O)=O)ccc1N
IC50: 97 µM
//
MOLECULE: O=C(N/N=C\c1ccc(Cl)cc1Cl)c1ccccc1SSc1ccccc1C(=O)N/N=C\c1ccc(Cl)cc1Cl
IC50: > 100 µM
//
MOLECULE: O=C(O)c1ccccc1SSc1ccccc1C(=O)O
IC50: > 100 µM
//
MOLECULE: O=C(O)c1ccc(SSc2ccc(C(=O)O)cc2)cc1
IC50: > 100 µM
//
MOLECULE: N=C(N)Nc1ccccc1SSc1ccccc1N=C(N)N
IC50: > 100 µM
//
MOLECULE: COc1cc(SSc2cc(OC)cc([N+](=O)[O-])c2N)c(N)c([N+](=O)[O-])c1
IC50: > 100 µM
//
MOLECULE: NC(=O)CSSCC(N)=O
IC50: > 100 µM
//
MOLECULE: Nc1cc(C(=O)O)ccc1SSc1ccc(C(=O)O)cc1N
IC50: > 100 µM
//
MOLECULE: O=C(O)Cc1ccc(SSc2ccc(CC(=O)O)cc2)cc1
IC50: > 100 µM
//
MOLECULE: Nc1cc(S(N)(=O)=O)ccc1SSc1ccc(S(N)(=O)=O)cc1N
IC50: 100 µM
//
MOLECULE: CC1(C)CC2=NC(SSC3=C(C#N)C(c4ccc(F)cc4)C4=C(O)CC(C)(C)CC4=N3)=C(C#N)C(c3ccc(F)cc3)C2=C(O)C1 (stereo not given)
IC50: > 100 µM
//
MOLECULE: CC(=O)NCCSS(=O)(=O)CCCCS(=O)(=O)SCCNC(C)=O
IC50: > 100 µM
//
MOLECULE: NNC(=O)c1ccccc1SSc1ccccc1C(=O)NN
IC50: 96 µM
//
MOLECULE: CC1(C)CC2=NC(SSC3=C(C#N)C(c4ccc(Br)cc4)C4=C(O)CC(C)(C)CC4=N3)=C(C#N)C(c3ccc(Br)cc3)C2=C(O)C1 (stereo not given)
IC50: > 100 µM
//
MOLECULE: COC(=S)SSC(=S)N(CC/N=C(/S)SSC(=S)OC)CC/N=C(\S)SSC(=S)OC
IC50: > 100 µM
//
MOLECULE: CC(=O)NC1CN=C(SSC2=NCC(NC(C)=O)S2)S1 (stereo not given)
IC50: > 100 µM
//
MOLECULE: Cc1cc(C(=O)O)c(C)cc1SSc1cc(C)c(C(=O)O)cc1C
IC50: > 100 µM
//
MOLECULE: O=C(O)c1cccc(SS(=O)(=O)c2cccc(C(=O)O)c2)c1
IC50: > 100 µM

The measured values listed here are drawn from ChEMBL document CHEMBL1129635.
